Entries and their IC50
Molecular target: c-Kit (Homo sapiens (Human), UniProt P10721)
Sequence (P10721 26-976): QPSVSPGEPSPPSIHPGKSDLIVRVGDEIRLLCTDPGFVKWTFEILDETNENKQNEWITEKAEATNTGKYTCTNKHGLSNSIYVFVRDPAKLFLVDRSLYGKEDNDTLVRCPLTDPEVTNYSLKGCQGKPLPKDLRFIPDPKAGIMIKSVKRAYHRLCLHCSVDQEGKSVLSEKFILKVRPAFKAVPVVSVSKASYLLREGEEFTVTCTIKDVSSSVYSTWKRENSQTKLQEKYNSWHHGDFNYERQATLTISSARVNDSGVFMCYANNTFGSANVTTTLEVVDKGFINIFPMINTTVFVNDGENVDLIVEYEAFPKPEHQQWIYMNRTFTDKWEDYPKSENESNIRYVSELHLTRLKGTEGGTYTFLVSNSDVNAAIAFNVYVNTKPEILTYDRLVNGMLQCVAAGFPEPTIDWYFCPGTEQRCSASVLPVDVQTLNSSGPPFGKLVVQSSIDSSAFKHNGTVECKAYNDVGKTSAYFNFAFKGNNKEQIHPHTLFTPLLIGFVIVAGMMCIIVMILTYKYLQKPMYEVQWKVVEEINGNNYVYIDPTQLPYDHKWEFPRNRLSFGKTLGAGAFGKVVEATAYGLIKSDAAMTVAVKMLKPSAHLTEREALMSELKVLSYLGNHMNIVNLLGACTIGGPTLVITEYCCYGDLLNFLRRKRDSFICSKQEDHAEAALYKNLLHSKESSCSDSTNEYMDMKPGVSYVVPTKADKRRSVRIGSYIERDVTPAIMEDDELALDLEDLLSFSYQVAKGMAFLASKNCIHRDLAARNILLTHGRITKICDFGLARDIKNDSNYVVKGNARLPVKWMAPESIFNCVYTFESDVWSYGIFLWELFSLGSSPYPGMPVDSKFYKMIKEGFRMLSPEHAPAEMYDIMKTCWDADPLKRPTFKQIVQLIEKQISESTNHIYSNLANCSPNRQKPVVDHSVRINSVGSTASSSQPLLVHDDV
Experiment: Inhibition of c-Kit kinase activity (HTRF KinEASE-TK)
Type: biochemical
Conditions: biochemical, HTRF KinEASE-TK

INSERT INTO measurements (smiles_representation, readout, reported) VALUES
  ('Cc1cc(F)c(C(=O)Nc2ccn(CC(C)C)n2)cc1NC(=O)c1cnc(N)s1', 'IC50', '< 100 nM');

Which IC50 is listed for `Nc1ncc(C(=O)Nc2cc(C(=O)Nc3ccc(OC(F)F)cn3)c(F)cc2F)s1` ?
< 100 nM

Same read-out for `Cc1ncc(C(=O)Nc2cc(C(=O)NCc3ccc(OC(F)(F)F)cc3)c(F)cc2C)s1` ?
100 to 1000 nM

---

Target: CSF1R (Homo sapiens (Human))
Sequence (P07333 20-972): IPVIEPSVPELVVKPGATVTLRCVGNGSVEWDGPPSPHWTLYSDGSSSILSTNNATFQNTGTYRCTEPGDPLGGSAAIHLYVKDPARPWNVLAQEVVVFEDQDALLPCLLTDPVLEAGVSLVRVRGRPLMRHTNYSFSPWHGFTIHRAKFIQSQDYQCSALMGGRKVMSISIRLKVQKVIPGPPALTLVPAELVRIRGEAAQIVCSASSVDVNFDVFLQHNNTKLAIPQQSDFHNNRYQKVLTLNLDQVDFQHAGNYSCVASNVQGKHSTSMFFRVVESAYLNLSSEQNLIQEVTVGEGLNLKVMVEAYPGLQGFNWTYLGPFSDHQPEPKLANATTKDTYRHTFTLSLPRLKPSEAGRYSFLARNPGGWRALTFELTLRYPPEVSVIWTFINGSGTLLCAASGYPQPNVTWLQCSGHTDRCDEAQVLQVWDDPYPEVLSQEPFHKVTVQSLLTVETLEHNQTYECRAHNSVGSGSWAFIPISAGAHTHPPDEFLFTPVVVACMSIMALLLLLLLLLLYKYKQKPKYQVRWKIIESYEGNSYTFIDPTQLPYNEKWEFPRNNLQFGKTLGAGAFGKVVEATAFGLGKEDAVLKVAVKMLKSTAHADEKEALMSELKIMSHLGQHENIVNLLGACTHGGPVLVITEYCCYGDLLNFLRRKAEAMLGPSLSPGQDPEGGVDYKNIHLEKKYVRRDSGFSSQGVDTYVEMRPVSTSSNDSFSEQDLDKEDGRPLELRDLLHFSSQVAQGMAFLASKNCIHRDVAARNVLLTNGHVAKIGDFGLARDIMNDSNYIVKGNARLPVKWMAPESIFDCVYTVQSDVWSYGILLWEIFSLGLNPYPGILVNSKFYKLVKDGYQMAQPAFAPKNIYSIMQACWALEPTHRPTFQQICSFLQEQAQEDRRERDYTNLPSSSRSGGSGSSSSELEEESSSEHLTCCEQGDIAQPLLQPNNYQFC
Assay: Inhibition of CSF1R kinase activity (HTRF KinEASE-TK)
Settings: biochemical, HTRF KinEASE-TK
Entries and their IC50

Consider the reported IC50 for these compounds:
INSERT INTO measurements (compound, readout, reported) VALUES
  ('Cc1cc(F)c(C(=O)Nc2cncc(C(F)(F)F)c2)cc1NC(=O)c1cnc(N)s1 [Example 249]', 'IC50', '< 0.1 µM'),
  ('Cc1cc(F)c(C(=O)N[C@@H]2C[C@@H]2F)cc1NC(=O)c1cnc(N)s1 [Example 137]', 'IC50', '> 1 µM'),
  ('Cc1ncc(C(=O)Nc2cc(C(=O)Nc3cnc(C4CC4)nc3)c(F)cc2C)s1 [Example 42]', 'IC50', '> 1 µM'),
  ('COc1ccc(NC(=O)c2cc(NC(=O)c3cnc(N)s3)c(F)cc2F)nc1 [Example 211]', 'IC50', '> 1 µM');

Item Cc1ncc(C(=O)Nc2cc(C(=O)Nc3cncc(COC(F)F)c3)c(F)cc2C)s1 [Example 80] with CSF1R (Homo sapiens (Human)) - IC50?
> 1 µM

Same read-out for Cc1cc(F)c(C(=O)NCc2ccn(C(C)C)n2)cc1NC(=O)c1cnc(N)s1 [Example 253] ?
> 1 µM

---

Target: PDGFRβ (Homo sapiens (Human), UniProt P09619)
Sequence (P09619 33-1106): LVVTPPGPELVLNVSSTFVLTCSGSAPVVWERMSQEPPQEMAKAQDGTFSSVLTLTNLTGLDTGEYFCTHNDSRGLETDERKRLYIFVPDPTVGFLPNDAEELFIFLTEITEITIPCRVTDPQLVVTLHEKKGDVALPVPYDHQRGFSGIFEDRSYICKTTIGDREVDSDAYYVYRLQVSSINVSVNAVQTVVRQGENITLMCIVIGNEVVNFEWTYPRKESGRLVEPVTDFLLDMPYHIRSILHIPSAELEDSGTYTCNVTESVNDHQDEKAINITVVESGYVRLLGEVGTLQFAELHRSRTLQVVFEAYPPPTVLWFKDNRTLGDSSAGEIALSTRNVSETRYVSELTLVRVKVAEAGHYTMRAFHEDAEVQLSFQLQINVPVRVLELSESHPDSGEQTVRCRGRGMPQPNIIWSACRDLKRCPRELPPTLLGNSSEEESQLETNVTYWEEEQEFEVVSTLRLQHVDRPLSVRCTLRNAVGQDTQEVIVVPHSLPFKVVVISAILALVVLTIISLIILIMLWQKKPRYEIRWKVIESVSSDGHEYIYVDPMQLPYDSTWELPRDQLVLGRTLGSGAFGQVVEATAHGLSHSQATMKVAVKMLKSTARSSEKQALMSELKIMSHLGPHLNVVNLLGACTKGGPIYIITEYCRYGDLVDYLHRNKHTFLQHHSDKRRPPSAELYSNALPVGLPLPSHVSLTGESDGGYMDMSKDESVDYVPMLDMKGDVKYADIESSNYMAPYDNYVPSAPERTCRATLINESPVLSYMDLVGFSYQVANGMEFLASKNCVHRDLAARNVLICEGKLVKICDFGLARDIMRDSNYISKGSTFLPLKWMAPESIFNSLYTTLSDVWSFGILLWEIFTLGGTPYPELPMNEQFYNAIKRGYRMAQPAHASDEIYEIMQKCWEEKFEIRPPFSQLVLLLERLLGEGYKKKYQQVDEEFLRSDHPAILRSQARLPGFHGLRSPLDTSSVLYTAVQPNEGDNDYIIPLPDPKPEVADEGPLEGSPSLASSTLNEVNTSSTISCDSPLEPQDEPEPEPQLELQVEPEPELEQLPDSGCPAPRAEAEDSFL
Experiment: Inhibition of PDGFRβ kinase activity (HTRF KinEASE-TK)
Settings: biochemical, HTRF KinEASE-TK
pIC50: −log10 of the molar value.
READOUT: pIC50

INSERT INTO results (compound, subject_of_test, readout, reported) VALUES
  ('COC(c1ccc(NC(=O)c2cc(NC(=O)c3cnc(N)s3)c(C)cc2F)nc1)C1CC1 (centres unmarked)', 'PDGFRβ (Homo sapiens (Human), UniProt P09619)', 'pIC50', '6.00 to 7.00'),
  ('Cc1cc(F)c(C(=O)Nc2ccc3c(n2)COC3)cc1NC(=O)c1cnc(N)s1', 'PDGFRβ (Homo sapiens (Human), UniProt P09619)', 'pIC50', '< 6.00'),
  ('Nc1ncc(C(=O)Nc2cc(C(=O)Nc3ncc(C4CC4)cn3)c(F)cc2Cl)s1', 'PDGFRβ (Homo sapiens (Human), UniProt P09619)', 'pIC50', '6.00 to 7.00'),
  ('Cc1cc(F)c(C(=O)Nc2cc3c(cn2)COC3)cc1NC(=O)c1cnc(N)s1', 'PDGFRβ (Homo sapiens (Human), UniProt P09619)', 'pIC50', '6.00 to 7.00');

Lab note: next compound to report on.
Item `COCc1ccc(NC(=O)c2cc(NC(=O)c3cnc(N)s3)c(F)cc2F)nc1` with PDGFRβ (Homo sapiens (Human), UniProt P09619) - pIC50?
< 6.00

---

Molecular target: UniProt P09619
Assay: Inhibition of PDGFRβ kinase activity (HTRF KinEASE-TK)
Conditions: biochemical, HTRF KinEASE-TK
READOUT: IC50

Consider the reported IC50 for these molecules:
INSERT INTO assay_data (smiles_representation, readout, reported) VALUES
  ('CCn1ccc(NC(=O)c2cc(NC(=O)c3cnc(N)s3)c(C)cc2F)n1', 'IC50', '> 1000 nM'),
  ('Nc1ncc(C(=O)Nc2cc(C(=O)Nc3ccc(C(F)(F)F)cn3)c(F)cc2F)s1', 'IC50', '> 1000 nM');

Lab note: next molecule to report on.
Which IC50 is listed for `Cc1ncc(C(=O)Nc2cc(C(=O)N[C@@H]3C[C@@H]3c3ccccc3Cl)c(F)cc2C)s1` ?
100 to 1000 nM

---

Entries and their IC50
Molecular target: PDGFRβ (Homo sapiens (Human), UniProt P09619)
Assay: Inhibition of PDGFRβ kinase activity (HTRF KinEASE-TK)
Details: biochemical, HTRF KinEASE-TK

Consider the reported IC50 for these molecules:
INSERT INTO results (smiles_representation, readout, reported) VALUES
  ('COc1ccc(NC(=O)c2cc(NC(=O)c3cnc(N)s3)c(C)cc2F)cc1', 'IC50', '100 to 1000 nM'),
  ('Cc1cc(F)c(C(=O)Nc2ccc3c(n2)CCOC3)cc1NC(=O)c1cnc(N)s1', 'IC50', '> 1000 nM'),
  ('Cc1cc(F)c(C(=O)Nc2nnc(C3CC3)[nH]2)cc1NC(=O)c1cnc(N)s1', 'IC50', '> 1000 nM'),
  ('Cc1ncc(C(=O)Nc2cc(C(=O)Nc3ccnc(CC4CC4)n3)c(F)cc2C)s1', 'IC50', '> 1000 nM'),
  ('Cc1ncc(C(=O)Nc2cc(C(=O)Nc3cnc(OCC(F)F)cn3)c(F)cc2C)s1', 'IC50', '> 1000 nM');

Item `Cc1cc(F)c(C(=O)Nc2ccn(-c3ccccc3)n2)cc1NC(=O)c1cnc(N)s1` with PDGFRβ (Homo sapiens (Human), UniProt P09619) - IC50?
> 1000 nM

Same read-out for `Cc1cc(F)c(C(=O)Nc2cccc(F)c2)cc1NC(=O)c1cnc(N)s1` ?
> 1000 nM

Same read-out for `Cc1cc(F)c(C(=O)Nc2ccc(OC(F)F)cc2)cc1NC(=O)c1cnc(N)s1` ?
< 100 nM

Same read-out for `Cc1cc(F)c(C(=O)N[C@@H]2C[C@@H]2F)cc1NC(=O)c1cnc(N)s1` ?
> 1000 nM

---

Biological target: c-Kit (Homo sapiens (Human), UniProt P10721)
Experiment: Inhibition of c-Kit kinase activity (HTRF KinEASE-TK)
Type: biochemical
Settings: biochemical, HTRF KinEASE-TK
pIC50: −log10 of the molar value.
Entries and their pIC50

Consider the reported pIC50 for these molecules:
INSERT INTO results (smiles_representation, subject_of_test, reported) VALUES
  ('Cc1ncc(C(=O)Nc2cc(C(=O)Nc3cnc(N4CC[C@@H](O)C4)cn3)c(F)cc2C)s1', 'c-Kit (Homo sapiens (Human), UniProt P10721)', '> 7.00'),
  ('CC(C)Oc1ccc(NC(=O)c2cc(NC(=O)c3cnc(N)s3)c(F)cc2F)nc1', 'c-Kit (Homo sapiens (Human), UniProt P10721)', '> 7.00'),
  ('Cc1ncc(C(=O)Nc2cc(C(=O)Nc3ccn(CC(C)C)n3)c(F)cc2C)s1', 'c-Kit (Homo sapiens (Human), UniProt P10721)', '> 7.00'),
  ('Cc1cc(F)c(C(=O)Nc2nnc(C3CC3)[nH]2)cc1NC(=O)c1cnc(N)s1', 'c-Kit (Homo sapiens (Human), UniProt P10721)', '6.00 to 7.00'),
  ('Cc1ncc(C(=O)Nc2cc(C(=O)Nc3cnc(N4CCC[C@@H]4C)cn3)c(F)cc2C)s1', 'c-Kit (Homo sapiens (Human), UniProt P10721)', '> 7.00'),
  ('Cc1ncc(C(=O)Nc2cc(C(=O)NCc3ccc(OC(F)(F)F)c(F)c3)c(F)cc2C)s1', 'c-Kit (Homo sapiens (Human), UniProt P10721)', '6.00 to 7.00');

Lab note: next molecule to report on.
Which pIC50 is listed for `Cc1cc(F)c(C(=O)N[C@@H]2C[C@@H]2F)cc1NC(=O)c1cnc(N)s1` ?
> 7.00

---

Entries and their pIC50
Target: PDGFRα (Homo sapiens (Human), UniProt P16234)
Sequence (P16234 24-1089): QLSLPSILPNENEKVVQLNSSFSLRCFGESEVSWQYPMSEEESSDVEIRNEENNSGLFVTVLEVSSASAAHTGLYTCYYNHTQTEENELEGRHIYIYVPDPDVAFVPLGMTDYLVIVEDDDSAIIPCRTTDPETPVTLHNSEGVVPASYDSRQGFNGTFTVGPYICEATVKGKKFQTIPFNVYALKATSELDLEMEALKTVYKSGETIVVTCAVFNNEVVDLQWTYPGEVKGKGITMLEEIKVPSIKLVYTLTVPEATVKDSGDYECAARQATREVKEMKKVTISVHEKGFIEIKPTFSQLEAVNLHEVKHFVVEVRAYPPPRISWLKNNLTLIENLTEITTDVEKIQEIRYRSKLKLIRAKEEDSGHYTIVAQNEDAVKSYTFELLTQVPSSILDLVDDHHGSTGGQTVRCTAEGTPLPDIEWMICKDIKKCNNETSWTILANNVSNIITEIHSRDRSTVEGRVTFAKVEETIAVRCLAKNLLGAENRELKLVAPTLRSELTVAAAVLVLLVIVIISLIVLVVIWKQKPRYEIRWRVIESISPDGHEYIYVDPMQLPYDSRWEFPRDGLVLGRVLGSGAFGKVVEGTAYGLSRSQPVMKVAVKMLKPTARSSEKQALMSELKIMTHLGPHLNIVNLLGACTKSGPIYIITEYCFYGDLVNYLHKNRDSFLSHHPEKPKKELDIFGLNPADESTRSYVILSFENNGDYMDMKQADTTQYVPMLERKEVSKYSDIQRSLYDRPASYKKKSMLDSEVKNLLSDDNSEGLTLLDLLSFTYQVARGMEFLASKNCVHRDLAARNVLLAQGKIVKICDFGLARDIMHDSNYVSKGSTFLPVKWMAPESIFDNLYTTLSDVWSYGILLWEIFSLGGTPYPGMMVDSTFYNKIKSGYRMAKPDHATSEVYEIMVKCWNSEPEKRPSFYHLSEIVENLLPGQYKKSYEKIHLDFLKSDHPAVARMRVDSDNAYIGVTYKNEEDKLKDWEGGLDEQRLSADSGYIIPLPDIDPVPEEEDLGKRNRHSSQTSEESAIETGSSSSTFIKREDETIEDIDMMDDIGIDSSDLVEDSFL
Assay: Inhibition of PDGFRα kinase activity (HTRF KinEASE-TK)
Settings: biochemical, HTRF KinEASE-TK
pIC50: −log10 of the molar value.

Consider the reported pIC50 for these compounds:
INSERT INTO assay_data (smiles_representation, readout, reported) VALUES
  ('Cc1ncc(C(=O)Nc2cc(C(=O)NCc3cc(F)cc(F)c3)c(F)cc2C)s1', 'pIC50', '< 6.00'),
  ('Cc1cc(F)c(C(=O)Nc2ccn(C3CC(F)(F)C3)n2)cc1NC(=O)c1cnc(N)s1', 'pIC50', '6.00 to 7.00'),
  ('Cc1cc(F)c(C(=O)Nc2ccc(Cl)cc2)cc1NC(=O)c1cnc(N)s1', 'pIC50', '6.00 to 7.00');

Which pIC50 is listed for `Cc1cc(F)c(C(=O)Nc2ccc(OC3CC3)cn2)cc1NC(=O)c1cnc(NC(=O)C2CC2)s1` ?
6.00 to 7.00

Same read-out for `Cc1cc(F)c(C(=O)Nc2ccn(-c3ccccc3)n2)cc1NC(=O)c1cnc(N)s1` ?
< 6.00

Same read-out for `Cc1ncc(C(=O)Nc2cc(C(=O)Nc3ccc(OC(C)C)cn3)c(F)cc2C)s1` ?
< 6.00

Same read-out for `Cc1cc(F)c(C(=O)Nc2ccc(OC3CC3)cn2)cc1NC(=O)c1cnc(NC(=O)C(F)(F)F)s1` ?
< 6.00
